assay: Metabolic stability of the compound in human liver microsomes after 30 mins; type: ADME, Microsome; settings: read-out: Stability
experimental-endpoint: remaining at 0.5 h (%)
Numbers only, in %.

Query block: Please give the measured remaining at 0.5 h for this molecule: Fc1cccc2c1CCC1(CCN(c3ccc(-c4nnc(Cc5cccnc5)o4)nn3)CC1)O2
Result block: 65

====

molecular target: Stearoyl-CoA desaturase (Homo sapiens, UniProt O00767); assay: Inhibition of SCD1 in HEK293A cell microsomes assessed as reduction in conversion of [14C]stearic acid to [14C]oleic acid after 30 mins; parameters: species or system HEK293-A, Microsome
experimental-endpoint: IC50 (nM)
Give bare numbers, in nM.

Examples with answers:
c1cncc(Cc2nnc(-c3ccc(N4CCC5(CCc6ccccc6O5)CC4)nn3)o2)c1 :: 1
c1ccc2c(c1)CCC1(CCN(c3ccc(-c4nnc(Cc5ccncc5)o4)nn3)CC1)O2 :: 6
c1ccc(Cc2nnc(-c3ccc(N4CCC5(CCc6ccccc6O5)CC4)nn3)o2)nc1 :: 4
Fc1cccc2c1CCC1(CCN(c3ccc(-c4nnc(Cc5cccnc5)o4)nn3)CC1)O2 :: 0.3
Fc1ccc(F)c2c1CCC1(CCN(c3ccc(-c4nnc(Cc5cccnc5)o4)nn3)CC1)O2 :: 0.1
O=C(NCCc1cccnc1)c1ccc(N2CCC3(CCc4ccccc4O3)CC2)nn1 :: 27
Cc1cccc2c1CCC1(CCN(c3ccc(-c4nnc(Cc5cccnc5)o4)nn3)CC1)O2 :: 0.2
FC(F)(F)c1cccc2c1CCC1(CCN(c3ccc(-c4nnc(Cc5cccnc5)o4)nn3)CC1)O2 :: 0.03

# evaluate next
Query block: Kindly state the measured IC50 obtained for Clc1cccc2c1CCC1(CCN(c3ccc(-c4nnc(Cc5cccnc5)o4)nn3)CC1)O2 with Stearoyl-CoA desaturase (Homo sapiens, UniProt O00767).
Result block: 0.06

====

test: Half life in C57BL/6J mouse at 20 mg/kg, po; format: ADME, organism-based; parameters: dose 20 mg/kg, route oral; conditions: in vivo
experimental-endpoint: half-life (min)
Numbers only, in min.

Some molecules with recorded half-life:
Clc1cccc2c1CCC1(CCN(c3ccc(-c4nnc(Cc5cccnc5)o4)nn3)CC1)O2 :: 42
Fc1cccc2c1CCC1(CCN(c3ccc(-c4nnc(Cc5cccnc5)o4)nn3)CC1)O2 :: 60
c1cncc(Cc2nnc(-c3ccc(N4CCC5(CCc6ccccc6O5)CC4)nn3)o2)c1 :: 48

Now look at this entry.
Query block: Sample Cc1cccc2c1CCC1(CCN(c3ccc(-c4nnc(Cc5cccnc5)o4)nn3)CC1)O2 — what was its half-life?
Result block: 36

====

assay: Metabolic stability of the compound in mouse liver microsomes after 30 mins; format: ADME, Microsome; conditions: read-out: Stability
experimental-endpoint: remaining at 0.5 h (%)
One number for each entry, in %.

Query block: Entry Fc1cccc2c1CCC1(CCN(c3ccc(-c4nnc(Cc5cccnc5)o4)nn3)CC1)O2 : reported remaining at 0.5 h = ?
Result block: 51

====

target: Acyl-CoA desaturase 1 (Mus musculus)
Sequence (P13516 whole entry): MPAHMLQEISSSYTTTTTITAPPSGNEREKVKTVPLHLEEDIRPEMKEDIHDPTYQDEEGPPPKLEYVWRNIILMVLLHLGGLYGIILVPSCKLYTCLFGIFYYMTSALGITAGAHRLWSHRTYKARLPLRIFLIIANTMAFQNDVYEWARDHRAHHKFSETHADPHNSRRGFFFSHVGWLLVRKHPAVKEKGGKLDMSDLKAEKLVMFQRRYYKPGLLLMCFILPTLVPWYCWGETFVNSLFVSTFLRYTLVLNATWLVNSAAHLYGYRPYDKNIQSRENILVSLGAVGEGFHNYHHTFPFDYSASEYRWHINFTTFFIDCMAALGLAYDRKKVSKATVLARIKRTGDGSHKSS
experimental-endpoint: pIC50
One number for each entry, as −log10 of the molar value.

Query block: # pIC50 lookup, item Clc1cccc2c1CCC1(CCN(c3ccc(-c4nnc(Cc5cccnc5)o4)nn3)CC1)O2
Result block: 10.40

====

Molecular target: Stearoyl-CoA desaturase (Homo sapiens)
Sequence (O00767 whole entry): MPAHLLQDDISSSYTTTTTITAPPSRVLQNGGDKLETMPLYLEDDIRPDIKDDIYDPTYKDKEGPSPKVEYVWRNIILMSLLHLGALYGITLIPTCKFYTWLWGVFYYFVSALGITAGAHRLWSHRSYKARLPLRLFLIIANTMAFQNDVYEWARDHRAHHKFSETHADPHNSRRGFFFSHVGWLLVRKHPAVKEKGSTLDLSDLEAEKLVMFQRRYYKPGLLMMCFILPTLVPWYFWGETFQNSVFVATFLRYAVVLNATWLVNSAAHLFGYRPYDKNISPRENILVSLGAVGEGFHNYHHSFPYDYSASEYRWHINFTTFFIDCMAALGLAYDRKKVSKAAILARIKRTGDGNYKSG
Assay: Inhibition of human SCD1 expressed in HEK293A cells assessed as reduction in conversion of [14C]stearic acid to [14C]oleic acid after 30 mins
Format: cell-based, HEK293-A
Kindly apply the following: 1 if IC50 is less than 1 nM, -1 in every other case.

Illustrative cases are given below, each with its answer.
c1ccc(Cc2nnc(-c3ccc(N4CCC5(CCc6ccccc6O5)CC4)nn3)o2)nc1 :: -1
c1cncc(Cc2nnc(-c3ccc(N4CCC5(CCc6ccccc6O5)CC4)nn3)o2)c1 :: -1
c1ccc2c(c1)CCC1(CCN(c3ccc(-c4nnc(Cc5ccncc5)o4)nn3)CC1)O2 :: -1
Fc1cccc2c1CCC1(CCN(c3ccc(-c4nnc(Cc5cccnc5)o4)nn3)CC1)O2 :: 1
Cc1cccc2c1CCC1(CCN(c3ccc(-c4nnc(Cc5cccnc5)o4)nn3)CC1)O2 :: 1

Here is the next item to consider.
Query block: Dear reviewer, please state whether O=C(NCCc1cccnc1)c1ccc(N2CCC3(CCc4ccccc4O3)CC2)nn1 has IC50 strictly beneath 1 nM.
Result block: -1
